# Tested on: Human plasma (intrinsic coagulation cascade)
# method: Activated Partial Thromboplastin Time (aPTT) Assay
# condition_parameters: concentration that causes a 50% (1.5×) increase of clot time over vehicle
For each entry below, report its aPTT (1.5x) value.
Include the unit after the number when you answer.

These recorded examples may help you get a feel for the data.
# compound, measured_endpoint, test_value
rows = [
    ("COc1cc(C(CC2CC2)C(=O)Nc2ccc(C(=O)O)cc2)[n+]([O-])cc1-c1c(OC(F)F)ccc(Cl)c1F (single isomer, unassigned) [Example 71]", "aPTT (1.5x)", "1.24 µM"),
    ("O=C(O)c1ccc(NC(=O)C(CC23CC(C2)C3)c2ccc(-c3c(OC(F)F)ccc(Cl)c3F)c[n+]2[O-])cc1 (single isomer, unassigned) [Example 52]", "aPTT (1.5x)", "1.17 µM"),
    ("CC1C(C)C1CC(C(=O)Nc1ccc(C(=O)O)cc1)c1ccc(-c2c(OC(F)F)ccc(Cl)c2F)c[n+]1[O-] (single isomer, unassigned) [Example 99]", "aPTT (1.5x)", "2.78 µM"),
    ("CC1(O)CC(CC(C(=O)Nc2ccc(C(=O)O)cc2)c2ccc(-c3c(C(F)F)ccc(Cl)c3F)c[n+]2[O-])C1 (single isomer, unassigned) [Example 85]", "aPTT (1.5x)", "1 µM"),
    ("N#CC1(CC(C(=O)Nc2ccc(C(=O)O)cc2)c2ccc(-c3c(C(F)F)ccc(Cl)c3F)c[n+]2[O-])CC1 (racemic) [Example 31]", "aPTT (1.5x)", "0.88 µM"),
]

Proceeding to the next compound to report its aPTT (1.5x).
Value of measured aPTT (1.5x) for the entry O=C(O)c1ccc(NC(=O)C(CC2CC2F)c2ccc(-c3c(C(F)F)ccc(Cl)c3F)c[n+]2[O-])cc1 (single isomer, unassigned) [Example 92] : 100 µM
